Reference source: paper PMC10960833

assay: AlamarBlue cytotoxicity assay, MRC5 normal cells; assay type: cell-based; settings: human, MRC5 healthy lung cells, 24 h treatment, mean ± SD of three independent experiments
Exercise: for every item that follows, state its recorded IC50 at 24 h.
Provide only the numeric value, understood in µg/mL.

So what does the record say about IC50 at 24 h for O=C(O)CCC(/N=C/c1ccccc1OCc1cn(-c2ccccc2)nn1)C(=O)O (stereo in doubt) ?
85.3

So what does the record say about IC50 at 24 h for O=Cc1ccccc1OCc1cn(-c2ccccc2)nn1 ?
76.9

So what does the record say about IC50 at 24 h for O=C([O-])[C@H](Cc1ccc([O-])cc1)/N=C/c1ccccc1OCc1cn(-c2ccccc2)nn1.[Na+].[Na+] ?
88.4

So what does the record say about IC50 at 24 h for O=C([O-])[C@H](Cc1c[nH]c2ccccc12)/N=C/c1ccccc1OCc1cn(-c2ccccc2)nn1.[Na+] ?
86.4

====

test system: A375 (skin) cancer cell lines; test: AlamarBlue cytotoxicity assay, A375; assay type: cell-based; conditions: Homo sapiens, A-375, 24 h, A375 cells, 24 h treatment, AlamarBlue; mean ± SD of three independent experiments
recorded.endpoint: IC50 (µg/mL)
Provide only the numeric value, understood in µg/mL.

So what does the record say about IC50 for O=C([O-])[C@H](Cc1ccc([O-])cc1)/N=C/c1ccccc1OCc1cn(-c2ccccc2)nn1.[Na+].[Na+] ?
24.8

So what does the record say about IC50 for O=C([O-])[C@H](Cc1c[nH]c2ccccc12)/N=C/c1ccccc1OCc1cn(-c2ccccc2)nn1.[Na+] ?
21.9

====

system: A375 (skin) cancer cell lines; assay: AlamarBlue cytotoxicity assay, A375; assay type: cell-based; conditions: Homo sapiens, A-375; A375, 50 µg/mL
Exercise: for every item that follows, state its recorded viability at 50 µg/mL.
Provide only the numeric value, understood in %.

So what does the record say about viability at 50 µg/mL for O=Cc1ccccc1OCc1cn(-c2ccccc2)nn1 ?
37

So what does the record say about viability at 50 µg/mL for O=C(O)CCC(/N=C/c1ccccc1OCc1cn(-c2ccccc2)nn1)C(=O)O (stereo in doubt) ?
34

So what does the record say about viability at 50 µg/mL for O=C([O-])[C@H](Cc1ccc([O-])cc1)/N=C/c1ccccc1OCc1cn(-c2ccccc2)nn1.[Na+].[Na+] ?
25

So what does the record say about viability at 50 µg/mL for O=C([O-])[C@H](Cc1c[nH]c2ccccc12)/N=C/c1ccccc1OCc1cn(-c2ccccc2)nn1.[Na+] ?
23

====

Exercise: for every item that follows, state its recorded IC50.
tested on: PC3 (prostate) cancer cell lines; assay: AlamarBlue cytotoxicity assay, PC3; format: cell-based; conditions: Homo sapiens, PC-3; PC3 cells, 24 h treatment, AlamarBlue; mean ± SD of three independent experiments
Provide only the numeric value, understood in µg/mL.

So what does the record say about IC50 for O=C(O)CCC(/N=C/c1ccccc1OCc1cn(-c2ccccc2)nn1)C(=O)O (stereo in doubt) [Compound 2] ?
60.6

So what does the record say about IC50 for O=C([O-])[C@H](Cc1ccc([O-])cc1)/N=C/c1ccccc1OCc1cn(-c2ccccc2)nn1.[Na+].[Na+] [Compound 4] ?
55.7

So what does the record say about IC50 for O=C([O-])[C@H](Cc1c[nH]c2ccccc12)/N=C/c1ccccc1OCc1cn(-c2ccccc2)nn1.[Na+] [Compound 3] ?
40.5

So what does the record say about IC50 for O=Cc1ccccc1OCc1cn(-c2ccccc2)nn1 [Compound 1] ?
75
